Tested on: male db/db mice
Assay: Measurement of blood sugar reduction, blood triglyceride reduction and blood free fatty acid reduction in db/db mice
Conditions: in vivo db/db mice, day 9 after administration; oral once a day, 30 mg/kg/day
Procedure: Measurement of Blood Sugar Reduction, Blood Triglyceride Reduction and Blood Free Fatty Acid Reduction Blood, was collected through a tail vein after the mice were fasted for 1 hour, before administration, and on Day 4 and Day 9 after administration, respectively. On Day 10, an oral glucose loading test was conducted; in this test, the mice were fasted overnight from the previous day, and in the next morning, 2 g/kg glucose was given to the mice. […]
Please respond with reported Blood free fatty acid reduction (%) for every item in the list.
Answers are plain numbers, in %.

A selection of reference data follows.
Prompt: What Blood free fatty acid reduction (%) value was documented for this molecule, CCC(Cc1ccc(OC)c(C(=O)NCc2ccc(C(F)(F)F)cc2)c1)C(=O)O (stereo not shown) ?
Response: 65.5

Prompt: Please give the result for COc1ccc(CC(OC(C)C)C(=O)O)cc1C(=O)NCc1ccc(C(F)(F)F)cc1 (stereo not shown) too.
Response: 46.7

Prompt: Proceed to CCCOC(Cc1ccc(OC)c(C(=O)NCc2ccc(C(F)(F)F)cc2)c1)C(=O)O (stereo not shown)
Response: 62.9

Further cases:
Prompt: Find the recorded Blood free fatty acid reduction (%) belonging to COc1ccc(CC(OC(C)(C)C)C(=O)O)cc1C(=O)NCc1ccc(C(F)(F)F)cc1 (stereo not shown) and report it.
Response: 47

----------
Target: human PPARβ (NUC-1) (Homo sapiens, UniProt Q03181)
Construct: human PPAR 167-468 (PPARα), 138-440 (NUC-1) and 174-475 (PPARY) amino acid regions; expressed in transfected cells; host or cells: CV-1 (ATCC CCL-70D)
Sequence (Q03181 138-440): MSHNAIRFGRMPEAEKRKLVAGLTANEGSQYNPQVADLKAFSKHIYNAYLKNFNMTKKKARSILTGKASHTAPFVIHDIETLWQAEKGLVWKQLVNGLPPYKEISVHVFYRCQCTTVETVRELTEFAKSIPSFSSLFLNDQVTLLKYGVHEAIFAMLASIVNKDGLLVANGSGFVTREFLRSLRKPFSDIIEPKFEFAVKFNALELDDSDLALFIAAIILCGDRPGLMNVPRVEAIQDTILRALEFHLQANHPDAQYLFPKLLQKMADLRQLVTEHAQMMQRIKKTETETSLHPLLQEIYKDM
Assay: Measurement of transcriptional activity (GAL4-PPAR LBD chimera, PLAP reporter, CV-1 cells)
Format: cell-based
assay_endpoint: EC50 (µM)
Numbers only, in µM.

Prompt: I have this compound here, CCC(Cc1ccc(OC)c(C(=O)NCc2ccc(C(F)(F)F)cc2)c1)C(=O)O (stereo not shown) , and I need its recorded EC50.
Response: 0.789

----------
Target: human PPARα (Homo sapiens)
Construct: human PPAR 167-468 (PPARα), 138-440 (NUC-1) and 174-475 (PPARY) amino acid regions; expressed in transfected cells; host or cells: CV-1 (ATCC CCL-70D)
Sequence (Q07869 167-468): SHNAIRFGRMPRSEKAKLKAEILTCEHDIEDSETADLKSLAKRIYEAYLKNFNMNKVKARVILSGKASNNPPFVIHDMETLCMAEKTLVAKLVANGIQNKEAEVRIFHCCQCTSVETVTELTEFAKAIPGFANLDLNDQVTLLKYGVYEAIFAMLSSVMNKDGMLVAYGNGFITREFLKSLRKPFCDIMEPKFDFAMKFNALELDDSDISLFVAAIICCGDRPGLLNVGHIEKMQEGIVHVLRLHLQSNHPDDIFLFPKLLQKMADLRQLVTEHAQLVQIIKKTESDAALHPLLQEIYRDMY
Experiment: Measurement of transcriptional activity (GAL4-PPAR LBD chimera, PLAP reporter, CV-1 cells)
Format: cell-based
assay_endpoint: pEC50
Answers are plain numbers, as −log10 of the molar value.

Prompt: Form field - read-out: pEC50; system: human PPARα (Homo sapiens); submitted item: CCC(Cc1ccc(OC)c(C(=O)NCc2ccc(C(F)(F)F)cc2)c1)C(=O)O (stereo not shown)
Response: 6.40

----------
Molecular target: human PPARβ (NUC-1) (Homo sapiens)
Construct: human PPAR 167-468 (PPARα), 138-440 (NUC-1) and 174-475 (PPARY) amino acid regions; expressed in transfected cells; host or cells: CV-1 (ATCC CCL-70D)
Assay: Measurement of transcriptional activity (GAL4-PPAR LBD chimera, PLAP reporter, CV-1 cells)
Type: cell-based
Conditions: CV-1 cells, GAL4-PPAR LBD chimera, PLAP activity 24 hours after addition of the compound; read-out: Transcriptional activities EC50 PRAR β
Description: Measurement of Transcriptional Activity As the reporter gene, PLAP (Placental Alkaline Phosphatase) was used, and this was ligated downstream of a TK promoter containing a 5-copy GAL4 DNA binding element to construct a vector. As host cells, CV-1 (ATCC CCL-70D) was used. […] The PLAC activity was determined after adding 50 μl assay buffer and 50 μl chemoluminescence substrate to 10 μl culture supernatant and incubating the mixture at room temperature for 1 hour.
Please respond with reported pEC50 for every item in the list.
Answers are plain numbers, as −log10 of the molar value.

Prompt: Short answer please: pEC50, human PPARβ (NUC-1) (Homo sapiens), entry COc1ccc(CC(OC(C)C)C(=O)O)cc1C(=O)NCc1ccc(C(F)(F)F)cc1 (stereo not drawn)
Response: 5.60

Dear colleague, could you send me pEC50 for each of the items below? Thanks.
1. COc1ccc(C[C@H](OC(C)C)C(=O)O)cc1CNC(=O)c1ccc(C(F)(F)F)cc1F [Example 36g)]
2. COc1ccc(CC(OC(C)(C)C)C(=O)O)cc1C(=O)NCc1ccc(C(F)(F)F)cc1 (stereo not drawn)
3. COc1ccc(C[C@H](OC(C)C)C(=O)O)cc1CNC(=O)c1ccc(Cl)cc1Cl [Example 37e)]
4. CCC(Cc1ccc(OC)c(NC(=O)Cc2ccc(C(F)(F)F)c(F)c2)c1)C(=O)O (stereo not drawn) [Example 18d)]

Response:
1. 7.43
2. 5.29
3. 6.36
4. 5.09

----------
Target: human PPARα (Homo sapiens)
Construct: human PPAR 167-468 (PPARα), 138-440 (NUC-1) and 174-475 (PPARY) amino acid regions; expressed in transfected cells; host or cells: CV-1 (ATCC CCL-70D)
Sequence (Q07869 167-468): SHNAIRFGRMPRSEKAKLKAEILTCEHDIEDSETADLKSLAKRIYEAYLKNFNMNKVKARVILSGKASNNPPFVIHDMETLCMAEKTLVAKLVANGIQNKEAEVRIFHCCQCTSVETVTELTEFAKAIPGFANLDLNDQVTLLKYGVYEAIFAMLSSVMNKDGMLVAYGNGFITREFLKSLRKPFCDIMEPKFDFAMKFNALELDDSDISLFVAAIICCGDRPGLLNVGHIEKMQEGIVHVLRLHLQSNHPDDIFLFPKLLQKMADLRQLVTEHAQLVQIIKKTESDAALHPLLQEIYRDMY
Assay: Measurement of transcriptional activity (GAL4-PPAR LBD chimera, PLAP reporter, CV-1 cells)
Type: cell-based
Settings: CV-1 cells, GAL4-PPAR LBD chimera, PLAP activity 24 hours after addition of the compound; read-out: Transcriptional activities EC50 PRAR α
Response field label: string, one of true (EC50 strictly below 80 nM) or false.

Prompt: Regarding COc1ccc(C[C@H](OC(C)C)C(=O)O)cc1CNC(=O)c1ccc(C(F)(F)F)cc1F [Example 36g)] , kindly confirm whether its EC50 is beneath 80 nM.
Response: true

Prompt: Query CCC(Cc1ccc(OC)c(NC(=O)Cc2ccc(C(F)(F)F)c(F)c2)c1)C(=O)O (stereo not drawn) [Example 18d)] next
Response: false

Prompt: Now the same for CCCOC(Cc1ccc(OC)c(C(=O)NCc2ccc(C(F)(F)F)cc2)c1)C(=O)O (stereo not drawn) [Example 9d)]
Response: false

Next:
Prompt: Strictly below 80 nM in EC50? COc1ccc(CC(OC(C)(C)C)C(=O)O)cc1C(=O)NCc1ccc(C(F)(F)F)cc1 (stereo not drawn) [Example 3d)]
Response: false

Prompt: Please answer likewise for COc1ccc(C[C@H](OC(C)C)C(=O)O)cc1CNC(=O)c1ccc(Cl)cc1Cl [Example 37e)]
Response: true
